system: mice bearing PSMA-expressing LNCAP cancer xenografts; test: Biodistribution of 68Ga-labeled compounds; type: in vivo; settings: 1 h post-injection
The molecules listed here are annotated with their Intestine uptake.

| MOLECULE | Intestine uptake (% ID/g) |
| --- | --- |
| Cc1ccc(CCCC(=O)NCC(=O)N[C@@H](CCCCNC(=O)CN2CCN(CC(=O)[O-])CCN(CC(=O)[O-])CCN(CC(=O)[O-])CC2)C(=O)NC[C@H]2CC[C@H](C(=O)N[C@@H](Cc3ccc4ccccc4c3)C(=O)NCCCC[C@H](NC(=O)N[C@@H](CCC(=O)O)C(=O)O)C(=O)O)CC2)cc1.[68Ga+3] [^68Ga-HTK03090] | 1.14 |
| O=C([O-])CN1CCN(CC(=O)[O-])CCN(CC(=O)NCCCC[C@H](NC(=O)CNC(=O)CCCc2ccc(Cl)cc2)C(=O)NC[C@H]2CC[C@H](C(=O)N[C@@H](Cc3ccc4ccccc4c3)C(=O)NCCCC[C@H](NC(=O)N[C@@H](CCC(=O)O)C(=O)O)C(=O)O)CC2)CCN(CC(=O)[O-])CC1.[68Ga+3] [^68Ga-HTK03055] | 1.52 |
| O=C([O-])CN1CCN(CC(=O)[O-])CCN(CC(=O)NCCCC[C@H](NC(=O)CNC(=O)CCCc2ccc(Br)cc2)C(=O)NC[C@H]2CC[C@H](C(=O)N[C@@H](Cc3ccc4ccccc4c3)C(=O)NCCCC[C@H](NC(=O)N[C@@H](CCC(=O)O)C(=O)O)C(=O)O)CC2)CCN(CC(=O)[O-])CC1.[68Ga+3] [^68Ga-HTK03058] | 1.64 |

* * *

System: mice bearing PSMA-expressing LNCAP cancer xenografts
Assay: Biodistribution of 68Ga-labeled compounds
Assay type: in vivo
Conditions: 1 h post-injection
Description: Imaging and biodistribution experiments were performed using NODSCID 1L2RyKO male mice. Mice were anesthetized by inhalation with 2% isoflurane in oxygen, and implanted subcutaneously with 1×10^7 LNCaP cells behind left shoulder. […] For biodistribution studies, the mice were injected with the radiotracer as described above. […] The collected organs/tissues were weighed and counted using an automatic gamma counter. […]

| COMPOUND | TESTED_SYSTEM | Urine uptake |
| --- | --- | --- |
| O=C([O-])CN1CCN(CC(=O)[O-])CCN(CC(=O)NCCCC[C@H](NC(=O)CNC(=O)CCc2ccccc2)C(=O)NC[C@H]2CC[C@H](C(=O)N[C@@H](Cc3ccc4ccccc4c3)C(=O)NCCCC[C@H](NC(=O)N[C@@H](CCC(=O)O)C(=O)O)C(=O)O)CC2)CCN(CC(=O)[O-])CC1.[68Ga+3] [^68Ga-HTK03082] | mice bearing PSMA-expressing LNCAP cancer xenografts | 349 ± 209 % ID/g |
| CCCCCCC(NC(=O)C1CCC(CNC(=O)CN2CCN(CC(=O)[O-])CCN(CC(=O)[O-])CCN(CC(=O)[O-])CC2)CC1)C(=O)NCCCCC(NC(=O)NC(CCC(=O)O)C(=O)O)C(=O)O.[68Ga+3] (stereo not shown) [^68Ga-HTK03026] | mice bearing PSMA-expressing LNCAP cancer xenografts | 575 ± 245 % ID/g |
| Nc1ccc(CCCC(=O)NCC(=O)N[C@@H](CCCCNC(=O)CN2CCN(CC(=O)[O-])CCN(CC(=O)[O-])CCN(CC(=O)[O-])CC2)C(=O)NC[C@H]2CC[C@H](C(=O)N[C@@H](Cc3ccc4ccccc4c3)C(=O)NCCCC[C@H](NC(=O)N[C@@H](CCC(=O)O)C(=O)O)C(=O)O)CC2)cc1.[68Ga+3] [^68Ga-HTK03087] | mice bearing PSMA-expressing LNCAP cancer xenografts | 196 ± 50.9 % ID/g |
| O=C([O-])CN1CCN(CC(=O)[O-])CCN(CC(=O)NCCCC[C@H](NC(=O)CNC(=O)CCCc2ccc([N+](=O)[O-])cc2)C(=O)NC[C@H]2CC[C@H](C(=O)N[C@@H](Cc3ccc4ccccc4c3)C(=O)NCCCC[C@H](NC(=O)N[C@@H](CCC(=O)O)C(=O)O)C(=O)O)CC2)CCN(CC(=O)[O-])CC1.[68Ga+3] [^68Ga-HTK03089] | mice bearing PSMA-expressing LNCAP cancer xenografts | 47.9 ± 46.6 % ID/g |
| Cc1ccc(CCCC(=O)NCC(=O)N[C@@H](CCCCNC(=O)CN2CCN(CC(=O)[O-])CCN(CC(=O)[O-])CCN(CC(=O)[O-])CC2)C(=O)NC[C@H]2CC[C@H](C(=O)N[C@@H](Cc3ccc4ccccc4c3)C(=O)NCCCC[C@H](NC(=O)N[C@@H](CCC(=O)O)C(=O)O)C(=O)O)CC2)cc1.[68Ga+3] [^68Ga-HTK03090] | mice bearing PSMA-expressing LNCAP cancer xenografts | 21.5 ± 9.93 % ID/g |
| O=C([O-])CN1CCN(CC(=O)[O-])CCN(CC(=O)NCCCC[C@H](NC(=O)CNC(=O)CCCc2ccccc2)C(=O)NC[C@H]2CC[C@H](C(=O)N[C@@H](Cc3ccc4ccccc4c3)C(=O)NCCCC[C@H](NC(=O)N[C@@H](CCC(=O)O)C(=O)O)C(=O)O)CC2)CCN(CC(=O)[O-])CC1.[68Ga+3] [^68Ga-HTK03056] | mice bearing PSMA-expressing LNCAP cancer xenografts | 203 ± 88.0 % ID/g |
| COc1ccc(CCCC(=O)NCC(=O)N[C@@H](CCCCNC(=O)CN2CCN(CC(=O)[O-])CCN(CC(=O)[O-])CCN(CC(=O)[O-])CC2)C(=O)NC[C@H]2CC[C@H](C(=O)N[C@@H](Cc3ccc4ccccc4c3)C(=O)NCCCC[C@H](NC(=O)N[C@@H](CCC(=O)O)C(=O)O)C(=O)O)CC2)cc1.[68Ga+3] [^68Ga-HTK03086] | mice bearing PSMA-expressing LNCAP cancer xenografts | 82.9 ± 62.5 % ID/g |

Data origin, for the record: patent US20200339625A1
